Tested on: Malme-3M
Test: Growth inhibition of human MALME-3M cells assessed as cell growth incubated for 48 hrs by sulforhodamine B assay
Type: functional
Parameters: scale not given: the % may be the effect or the level left
REPORTED_PROPERTY: Activity (%)
Response body: numeric value in %, unit text excluded.

Inquiry: Please list Activity recorded for the compound O=c1c2ccccc2c(=O)c2c1sc1c(=O)c3ccc(CCCO)cc3c(=O)c12
Reply text: -94.59

Inquiry: Query Activity for CC(C)(O)C(O)CCc1ccc2c(=O)c3sc4c(=O)c5ccccc5c(=O)c4c3c(=O)c2c1 (stereo not given)
Reply text: -93.22

Inquiry: Please give the documented Activity of O=C([O-])CCc1ccc2c(=O)c3sc4c(=O)c5ccccc5c(=O)c4c3c(=O)c2c1.[Na+]
Reply text: -95.72

Inquiry: Give the measured Activity for CC(C)(C)OC(=O)NCC1CN(C(=O)CCc2ccc3c(=O)c4sc5c(=O)c6ccccc6c(=O)c5c4c(=O)c3c2)C1
Reply text: -88.84

Inquiry: Report Activity for NCC1CN(C(=O)CCc2ccc3c(=O)c4sc5c(=O)c6ccccc6c(=O)c5c4c(=O)c3c2)C1.O=C(O)C(F)(F)F
Reply text: -93.22

----------
Tested on: SR
Assay: Growth inhibition of human SR cells assessed as cell growth incubated for 48 hrs by sulforhodamine B assay
Format: functional
Design: concentration or dose not given beside the values
Record form. Attribute: Activity. Fill in for each entry.
Your reply should be a number followed by the unit it is expressed in.

Inquiry: Please give the documented Activity of CC(C)(C)OC(=O)NCC1CN(C(=O)CCc2ccc3c(=O)c4sc5c(=O)c6ccccc6c(=O)c5c4c(=O)c3c2)C1
Reply text: -5.83%

Inquiry: Given the compound O=c1c2ccccc2c(=O)c2c1sc1c(=O)c3ccc(CCCO)cc3c(=O)c12 , write its reported Activity.
Reply text: -22.18%

Inquiry: Fill in reported Activity for this entry: NCC1CN(C(=O)CCc2ccc3c(=O)c4sc5c(=O)c6ccccc6c(=O)c5c4c(=O)c3c2)C1.O=C(O)C(F)(F)F
Reply text: -25%

Inquiry: Consider the compound CC(C)(O)C(O)CCc1ccc2c(=O)c3sc4c(=O)c5ccccc5c(=O)c4c3c(=O)c2c1 (stereo not given) and give its recorded Activity.
Reply text: -25%

Inquiry: Return value of Activity for input O=C([O-])CCc1ccc2c(=O)c3sc4c(=O)c5ccccc5c(=O)c4c3c(=O)c2c1.[Na+] , no commentary.
Reply text: -13.25%

----------
Task for the reader: assign each of the following molecules its reported Activity.
Tested on: NCI-H23
Assay: Growth inhibition of human NCI-H23 cells assessed as cell growth incubated for 48 hrs by sulforhodamine B assay
Type: functional
Set-up: concentration or dose not given beside the values
Kindly provide the numeric value in % only, without the unit symbol.

Inquiry: Please give the documented Activity of O=C([O-])CCc1ccc2c(=O)c3sc4c(=O)c5ccccc5c(=O)c4c3c(=O)c2c1.[Na+]
Reply text: -48.38

Inquiry: Give recorded Activity. NCC1CN(C(=O)CCc2ccc3c(=O)c4sc5c(=O)c6ccccc6c(=O)c5c4c(=O)c3c2)C1.O=C(O)C(F)(F)F
Reply text: -50.82

Inquiry: Note Activity for the molecule shown: CC(C)(C)OC(=O)NCC1CN(C(=O)CCc2ccc3c(=O)c4sc5c(=O)c6ccccc6c(=O)c5c4c(=O)c3c2)C1
Reply text: -39.91

Inquiry: Recall and state the measured Activity for CC(C)(O)C(O)CCc1ccc2c(=O)c3sc4c(=O)c5ccccc5c(=O)c4c3c(=O)c2c1 (stereo not given) .
Reply text: -50.82

Inquiry: Could you please provide reported Activity for O=c1c2ccccc2c(=O)c2c1sc1c(=O)c3ccc(CCCO)cc3c(=O)c12 ? Thanks!
Reply text: -39.8

----------
For each entry below, report its Activity value.
Tested on: HL-60(TB)
Assay: Growth inhibition of human HL-60(TB) cells assessed as cell growth incubated for 48 hrs by sulforhodamine B assay
Format: functional
Set-up: concentration or dose not given beside the values
Note: unit % is implicit; provide only the numeric part.

Inquiry: Name the recorded Activity of the compound listed here: CC(C)(O)C(O)CCc1ccc2c(=O)c3sc4c(=O)c5ccccc5c(=O)c4c3c(=O)c2c1 (stereo not given)
Reply text: -46.78

Inquiry: Using known records, supply Activity for O=c1c2ccccc2c(=O)c2c1sc1c(=O)c3ccc(CCCO)cc3c(=O)c12
Reply text: -39.5

Inquiry: For the compound CC(C)(C)OC(=O)NCC1CN(C(=O)CCc2ccc3c(=O)c4sc5c(=O)c6ccccc6c(=O)c5c4c(=O)c3c2)C1 , give its reported Activity.
Reply text: -44.47

Inquiry: Tell me measured Activity for NCC1CN(C(=O)CCc2ccc3c(=O)c4sc5c(=O)c6ccccc6c(=O)c5c4c(=O)c3c2)C1.O=C(O)C(F)(F)F please.
Reply text: -46.78

Inquiry: Answer with the recorded Activity of O=C([O-])CCc1ccc2c(=O)c3sc4c(=O)c5ccccc5c(=O)c4c3c(=O)c2c1.[Na+] only.
Reply text: -1.51

----------
Exercise: for every item that follows, state its recorded Activity.
System: NCI/ADR-RES
Assay: Growth inhibition of human NCI/ADR-RES cells assessed as cell growth incubated for 48 hrs by sulforhodamine B assay
Format: functional
Design: concentration or dose not given beside the values
Give your result in % as a bare value.

Inquiry: Supply reported Activity belonging to this compound: NCC1CN(C(=O)CCc2ccc3c(=O)c4sc5c(=O)c6ccccc6c(=O)c5c4c(=O)c3c2)C1.O=C(O)C(F)(F)F
Reply text: -15.35

Inquiry: Specify reported Activity for the compound shown: CC(C)(C)OC(=O)NCC1CN(C(=O)CCc2ccc3c(=O)c4sc5c(=O)c6ccccc6c(=O)c5c4c(=O)c3c2)C1
Reply text: -12.16

Inquiry: Query Activity for CC(C)(O)C(O)CCc1ccc2c(=O)c3sc4c(=O)c5ccccc5c(=O)c4c3c(=O)c2c1 (stereo not given)
Reply text: -15.35

Inquiry: Quickly give me recorded Activity for O=C([O-])CCc1ccc2c(=O)c3sc4c(=O)c5ccccc5c(=O)c4c3c(=O)c2c1.[Na+]
Reply text: -16.65

Inquiry: Give recorded Activity. O=c1c2ccccc2c(=O)c2c1sc1c(=O)c3ccc(CCCO)cc3c(=O)c12
Reply text: -22.56

----------
System: SK-OV-3
Assay: Growth inhibition of human SKOV3 cells assessed as cell growth incubated for 48 hrs by sulforhodamine B assay
Type: functional
Set-up: concentration or dose not given beside the values
What Activity was measured for each of the following?
The answer is to be given in %; state only the numeric part.

Inquiry: Name the recorded Activity of the compound listed here: CC(C)(C)OC(=O)NCC1CN(C(=O)CCc2ccc3c(=O)c4sc5c(=O)c6ccccc6c(=O)c5c4c(=O)c3c2)C1
Reply text: -34.85

Inquiry: Query Activity for CC(C)(O)C(O)CCc1ccc2c(=O)c3sc4c(=O)c5ccccc5c(=O)c4c3c(=O)c2c1 (stereo not given)
Reply text: -97.49

Inquiry: Please list Activity recorded for the compound O=c1c2ccccc2c(=O)c2c1sc1c(=O)c3ccc(CCCO)cc3c(=O)c12
Reply text: -74.3

Inquiry: Answer with the recorded Activity of NCC1CN(C(=O)CCc2ccc3c(=O)c4sc5c(=O)c6ccccc6c(=O)c5c4c(=O)c3c2)C1.O=C(O)C(F)(F)F only.
Reply text: -97.49

Inquiry: Please give measured Activity of the following entry: O=C([O-])CCc1ccc2c(=O)c3sc4c(=O)c5ccccc5c(=O)c4c3c(=O)c2c1.[Na+]
Reply text: -20.08

----------
Tested on: TK-10
Test: Growth inhibition of human TK10 cells assessed as cell growth incubated for 48 hrs by sulforhodamine B assay
Format: functional
Design: concentration or dose not given beside the values
REPORTED_PROPERTY: Activity (%)
Record the value in %, omitting the unit from your answer.

Inquiry: For O=C([O-])CCc1ccc2c(=O)c3sc4c(=O)c5ccccc5c(=O)c4c3c(=O)c2c1.[Na+] , write its Activity.
Reply text: -13.65

Inquiry: // Input: CC(C)(C)OC(=O)NCC1CN(C(=O)CCc2ccc3c(=O)c4sc5c(=O)c6ccccc6c(=O)c5c4c(=O)c3c2)C1 . Output its Activity only.
Reply text: -8.18

Inquiry: Look up Activity of NCC1CN(C(=O)CCc2ccc3c(=O)c4sc5c(=O)c6ccccc6c(=O)c5c4c(=O)c3c2)C1.O=C(O)C(F)(F)F and report it.
Reply text: -89.49

Inquiry: Return reported Activity. Input compound: CC(C)(O)C(O)CCc1ccc2c(=O)c3sc4c(=O)c5ccccc5c(=O)c4c3c(=O)c2c1 (stereo not given)
Reply text: -89.49

Inquiry: Check the records and state Activity for O=c1c2ccccc2c(=O)c2c1sc1c(=O)c3ccc(CCCO)cc3c(=O)c12
Reply text: -94.99

----------
System: HOP-62
Assay: Growth inhibition of human HOP62 cells assessed as cell growth incubated for 48 hrs by sulforhodamine B assay
Format: functional
Set-up: concentration or dose not given beside the values
I'd be grateful if you could share measured Activity for these entries.
Express the result in % but write the number alone.

Inquiry: Quick one: give measured Activity for CC(C)(C)OC(=O)NCC1CN(C(=O)CCc2ccc3c(=O)c4sc5c(=O)c6ccccc6c(=O)c5c4c(=O)c3c2)C1
Reply text: -74.88

Inquiry: Find the measured Activity of O=c1c2ccccc2c(=O)c2c1sc1c(=O)c3ccc(CCCO)cc3c(=O)c12 and report it.
Reply text: -100

Inquiry: Fill in reported Activity for this entry: O=C([O-])CCc1ccc2c(=O)c3sc4c(=O)c5ccccc5c(=O)c4c3c(=O)c2c1.[Na+]
Reply text: -94.95

Inquiry: Note Activity for the compound shown: CC(C)(O)C(O)CCc1ccc2c(=O)c3sc4c(=O)c5ccccc5c(=O)c4c3c(=O)c2c1 (stereo not given)
Reply text: -90.94

Inquiry: Kindly indicate its recorded Activity. Item: NCC1CN(C(=O)CCc2ccc3c(=O)c4sc5c(=O)c6ccccc6c(=O)c5c4c(=O)c3c2)C1.O=C(O)C(F)(F)F
Reply text: -90.94
